- System: MDA-MB-231 breast
- method.description: NCI-60 one-dose screen, 48 h (100 = growth as untreated, 0 = no growth, -100 = all killed)
- particulars: 10 µM unless noted
Compounds without any hit were thinned out: in the full panel of roughly 83,000, 20% have a hit.
Parameter threshold = 60%. Response is 1.0 when growth meets or exceeds it, else 0.0.

Could you tell me if the measured growth of COc1ccc(NS(=O)(=O)c2ccc(C)cc2)c([N+](=O)[O-])c1 reaches 60% or more? 1.0

Is growth at least 60%? Consider COc1ccncc1C#Cc1cncc(C(=O)Nc2ccc(CN3CCN(C)CC3)c(C(F)(F)F)c2)c1 0.0

Answer whether growth of COc1cccc2c1C(=O)c1c(O)c3c(c(O)c1C2=O)C[C@@](O)(C(=O)CO)C[C@@H]3O[C@H]1C[C@H](N)[C@@H](O)[C@H](C)O1 is greater than or equal to 60%. 0.0

Assess whether reported growth for CC1(C)CN(c2cnc(C(=O)Nc3cc(F)cc4cccnc34)cn2)CCN1 sits at 60% or higher. 0.0

Decide: growth of Fc1cc(C2=NNC(c3ccc[nH]3)C2)ccc1-n1ccc(C(F)(F)F)n1 (centres undefined) >= 60%? 1.0

Is it the case that COc1ccccc1C(C[N+](=O)[O-])c1c(-c2ccccc2)[nH]c2cc(C)ccc12 (centres undefined) has growth reaching or exceeding 60%? 0.0

API: above_or_equal(metric=growth, cutoff=60%) for item COc1ccc(-c2nc(N/N=C/c3cccc(Br)c3)nc(N3CCOCC3)c2C#N)cc1 1.0

Would you say O=C(N/N=C/c1cccnc1)c1ccccc1Nc1cccc(C(F)(F)F)c1 shows growth at minimum 60%? 1.0

Decide: is the reported value of growth for CCN(CC)CCSCCCNc1c(C)cnc2cc(Cl)ccc12 equal to or greater than 60%? 1.0

###

I'd be grateful if you could share measured growth for these entries.
- System: U251 CNS
- method.description: NCI-60 one-dose screen, 48 h (100 = growth as untreated, 0 = no growth, -100 = all killed)
- particulars: 10 µM unless noted
This is part of a sample that, as a whole, favours compounds with a hit. Of some 83,000 tested, about 20% had one in any assay.
// units = %; emit number, no label

Give the measured growth of O=C1CCC(NC(=S)Nc2ccccc2)N1 (configuration not stated) . 104

So what does the record say about growth for COc1cc(C2CC(c3cccc(Nc4ccncc4)c3)=NN2c2ccc(Cl)cc2)cc(OC)c1OC (configuration not stated) ? -53.2

Look up growth: Fc1cc(C2=NNC(c3ccc[nH]3)C2)ccc1-n1ccc(C(F)(F)F)n1 (configuration not stated) 77.6

growth lookup needed for COc1cc(C(=O)/C=C/c2c(C)n([O-])c3ccc(Cl)cc3[n+]2=O)cc(OC)c1OC , thanks. 61.4

What value of measured growth is listed for CCCCCCNC(=O)Oc1ccc(/C(=C(/CC)Cc2ccccc2)c2ccc(OCCN(CC)CC)cc2)cc1 ? 43.2

# growth lookup, item Cc1c([N+](=O)[O-])cc(C(C)(C)C)cc1[N+](=O)[O-] 95.4

Reported growth for COc1cccc(CCC(=O)c2cc3c(N)c(C(=O)Nc4cccc(Cl)c4C)sc3nc2C)c1 : what is it? 16.7

Form field: reported growth of Clc1ccc(N2N=C(c3cccc(Nc4ccncc4)c3)CC2c2ccc3c(c2)OCO3)cc1 (configuration not stated) 5.93

Fill in the blank: the reported growth of OC(c1ccccc1)c1ccccn1 (configuration not stated) is ____. 96.1

Name the reported growth value associated with the molecule COC(=O)Nc1ccc(NC(=O)OC)cc1 99.1

So what does the record say about growth for CCOc1cc(CNc2ccc(N3CCOCC3)c(C(=O)O)c2)ccc1OC ? 103

So what does the record say about growth for FCc1nc2nc(Cl)c(Cl)nc2[nH]1 ? 101

Please report the recorded growth for CCn1ccnc1C(=O)/C=C/c1ccc(CC(=O)Nc2ccc(F)cc2)cc1 . 10.5

Given O=S(=O)(c1ccc(N/N=C\c2ccccc2)cc1)c1ccc(N/N=C/c2ccccc2)cc1 , state its recorded growth. 66.6

For the molecule shown here, CCOC(=O)c1c(O)cc(-c2ccccc2)cc1-c1sc(N(C)Cc2ccccc2)nc1Cl , give the reported growth. 98

I'd like to know its growth. The molecule in question is O=[N+]([O-])c1cccc(-c2nc(-c3ccc(Cl)cc3Cl)cn2-c2ccccc2)c1 -60.5

State the recorded growth for this entry: COc1cc(NCC(O)CN(CC(C)C)C2CCCC2)c2ncccc2c1 (configuration not stated) 79.9

What value of growth has been recorded for this entry: NC(=O)c1cccc(-n2ccc3cc(NC(=O)Nc4cc(C(F)(F)F)cc(C(F)(F)F)c4)ccc32)n1 36.7

// returns reported growth for input O=S(=O)(c1cccc(NC2=Nc3cccc4cccc2c34)c1)N1CCCC1 65.7

Could you share which growth value was measured for O=S(=O)(NCCCNc1nccc(-c2c(-c3ccccc3)nc3occn23)n1)c1ccc(Cl)cc1 ? 86.6

I'd like to know its growth. The molecule in question is O=C(OCc1nc2nc(Cl)nc(N3CCOCC3)c2[nH]1)n1ccnc1 1.06

Record request: growth value, item Nc1c(C(=O)Nc2cccc3ccncc23)sc2nc3c(cc12)C(=O)CCC3 48.3

Field request: growth | item: COc1cccc(CNCCN2C(=O)c3ccc4c5c(ccc(c35)C2=O)C(=O)N(CCNCc2cccc(OC)c2)C4=O)c1 76.9

Recorded growth for COc1cc2nnn3c4ncccc4c(N=O)c3c2cc1OC , please? 45.1

Entry CCc1c(Nc2ccc(C)cc2)[nH]c(N)nc1=S : reported growth = ? 97

Query: growth; subject: CC(=O)c1c[nH]c2ccc(-c3ccnc(Nc4ccc(NC(=O)c5cccc(F)c5)c(CN5CCOCC5)c4)n3)cc12 8.5

Any idea what its growth is? The molecule is Cc1ccc2nc3c(cc2c1)CSc1nnc(-c2ccc[nH]c2=S)n1N3 112

Bench note: what growth did CCSc1ccc2c(c1)N(CCCN1CCN(C)CC1)c1ccccc1S2 show? 36.2

Tell me the measured growth of COc1ccc(C(=O)c2cc3c(N)c(C(=O)Nc4cccc(Br)c4C)sc3nc2C)cc1 , please. 10.7

Returns the measured growth for the input molecule. Input: CCCCCCCCCCN=C(N)N=C(N)N 34.8

What growth value was documented for this molecule, O=C1CCCN1c1cccc2cccnc12 ? 96.4

For CCCCCCCCCCCCCCCC(=O)OC[C@@]1(O)C[C@@]23CC[C@@H]4C(C)(C)CCC[C@@]4(C)[C@@H]2CC[C@H]1C3 , what is its reported growth? 95.8

Returns the measured growth for the input molecule. Input: O=C(Cc1ccc(/C=C/C(=O)c2ncc[nH]2)cc1)Nc1ccc(C(F)(F)F)cc1 -88.8

Fill blank: measured growth of the molecule CCCCCCN(C)Cc1ccc(OCCOc2ccc(CN(C)CCCCCC)cc2)cc1 is ____. 7.97

For the molecule Cc1cccc(Oc2ccc(Nc3ncnc4ccc(NC(=O)CN(C)C)cc34)cc2Cl)c1 , what growth is on record? 28.1

// lookup growth for COc1ccc(-n2cc(-c3cc(OC)c(OC)c(OC)c3)n(C(C)=O)c2=O)cc1 88.2

// query growth value for entry O=C(c1ccccc1)N1N=C(c2ccc(-n3ccc(C(F)(F)F)n3)cc2)CC1c1ccc[nH]1 (configuration not stated) 86

Which value of growth has been reported for O=C1NC(=S)NC(=O)C1=Cc1cn(Cc2ccccn2)c2ccccc12 in the records? 31.5

Give the measured growth of COC(=O)C1NC(=S)N(c2ccc(Cl)cc2)C1/C=C/c1ccccc1 (configuration not stated) . 97.5

// query growth value for entry CN1CCCC1=Nc1ccccc1 94.7

What growth value was documented for this molecule, NC(=O)c1cccc(-c2cc(C(N)=O)ccc2Cl)c1 ? 19.1

Need growth, item CC(=O)N1c2ccccc2NC2=C(C(=O)N(Cc3ccccc3)C2(C)C)C1c1ccco1 (configuration not stated) 24.6

###

- System: M14 melanoma
- method.description: NCI-60 one-dose screen, 48 h (100 = growth as untreated, 0 = no growth, -100 = all killed)
- particulars: 10 µM unless noted
Compounds without any hit were thinned out: in the full panel of roughly 83,000, 20% have a hit.
assay.readout: growth (%)
Numeric only. Scale: %

Please look up its growth: Cc1c2c(cc[n+]1Cc1ccc(F)cc1)c1ccc(OCc3cccc(F)c3)cc1n2Cc1cccc(F)c1 -82.1

Endpoint output: growth of NC(=O)c1ncn(C2OC(CO)C(O)C2O)n1 (centres undefined) . Value? 92.8

Need growth, item CN1CCN(c2ccc3nc(-c4cc(C(C)(C)C)c(O)c(C(C)(C)C)c4)[nH]c3c2)CC1 11

Param item = Cc1ccc(/C=C/C(=O)c2ccc(N)cc2)c(C)c1 ; retrieve measured growth. 50.6

// returns reported growth for input C=C(C)[C@@H]1CC[C@]2(C(=O)NCC(=O)OC)CC[C@]3(C)[C@H](CC[C@@H]4[C@@]5(C)Cc6c([nH]c7ccccc67)C(C)(C)[C@@H]5CC[C@]43C)[C@@H]12 89.5

Given CC(C)CN(C(=O)c1ccc(Cl)cc1)c1c(N)n(CC(C)C)c(=O)[nH]c1=O , state its recorded growth. 109

Entry CC(=O)Nc1ccc(C(=O)Nc2cc(-c3ccccc3)ccc2N)cc1 has what growth? 77.3

Query: growth; subject: CCC(C)N(CCNc1cc(OC)cc2cccnc12)CCC(C)C (centres undefined) 82.4

Consider the molecule CN1CCN(CCCNc2nccc(-c3c(-c4ccc(F)c(O)c4)nc4sccn34)n2)S1(=O)=O and give its measured growth. 20
